These measurements were taken from patent US20160193206A1.

system: MOLM-13 cell line; experiment: MOLM-13 cell proliferation assay (alamarBlue); type: cell-based; conditions: Homo sapiens, inhibition of proliferation of MOLM-13 cells (acute myeloid leukaemia), 96 hours incubation
pIC50: −log10 of the molar value.
Observation Type: pIC50

In the examples that follow, each entry is paired with its recorded pIC50.
Molecule: COc1cc(C(=O)NCCN2CCN(C)CC2)ccc1Nc1ccc2c(n1)N(C1CCCCC1)[C@H](C)C(=O)N2C [Example 67]
pIC50: 6.58
//
Molecule: C[C@@H]1C(=O)N(C)c2ccc(Nc3ccc(C(=O)NCCN4CCN(C)CC4)cc3)nc2N1C1CCCCC1 [Example 66]
pIC50: 6.57
//
Molecule: COc1cc(C(=O)NCCN(C)C)ccc1Nc1ccc2c(n1)N(C(C)C)[C@H](C)C(=O)N2C [Example 5]
pIC50: 6.30
//
Molecule: C[C@@H]1C(=O)N(C)c2ccc(Nc3ccc(C(=O)N[C@H]4CC[C@H](N5CCN(CC6CC6)CC5)CC4)cc3)nc2N1C1CCOCC1 [Example 57]
pIC50: 6.44
//
Molecule: CC1C(=O)N(C)c2ccc(Nc3ccc(S(=O)(=O)NC4CCN(C)CC4)cc3)nc2N1c1ccccc1 (stereo not shown) [Example 107]
pIC50: 6.59

A: C[C@@H]1C(=O)N(C)c2ccc(Nc3ccc(S(=O)(=O)N4CCN(C)CC4)cc3F)nc2N1C1CCOCC1 [Example 21]
B: COc1cc(C(=O)NC2CCN(C)CC2)ccc1Nc1ccc2c(n1)N(C1CCOCC1)[C@H](C)C(=O)N2C [Example 13]
Task: I'm curious, which of these has a smaller pIC50 number: A or B ? Your choice should be expressed through its label.
Result: A
(A: 6.40, B: 6.67)

* * *

target: BRD4 bromo domain 2 [BRD4(2)] (Homo sapiens); construct: N-terminally His6-tagged BRD4(2) (amino acids 357-445); assay: BRD4(2)/acetylated peptide H4 binding assay (TR-FRET); details: inhibition of interaction between His6-tagged BRD4(2) (amino acids 357-445) and acetylated histone H4 peptide
Observation Type: IC50 (nM)

Molecule Smiles: COc1cc(C(=O)NCc2ccccn2)ccc1Nc1ccc2c(n1)N(C1CCOCC1)[C@H](C)C(=O)N2C
Study System: BRD4 bromo domain 2 [BRD4(2)] (Homo sapiens)
Observation Type: IC50
Value Observed: 112
--
Molecule Smiles: C[C@@H]1C(=O)N(C)c2ccc(Nc3ccc(C(=O)NCCc4cccnc4)cc3)nc2N1C1CCOCC1
Study System: BRD4 bromo domain 2 [BRD4(2)] (Homo sapiens)
Observation Type: IC50
Value Observed: 317

a: C[C@@H]1C(=O)N(C)c2ccc(Nc3ccc(S(=O)(=O)N[C@H]4CC[C@H](N5CCN(CC6CC6)CC5)CC4)cc3)nc2N1Cc1ccccc1
b: C[C@@H]1C(=O)N(C)c2ccc(Nc3ccc(C(=O)NCc4ccccn4)cc3)nc2N1C1CCOCC1
Task: Larger number for IC50: a , or b ? The response must carry the label of the picked entry.
Result: b

* * *

Target: BRD4 bromo domain 1 [BRD4(1)] (Homo sapiens, UniProt O60885)
Construct: N-terminally His6-tagged BRD4(1) (amino acids 67-152)
Assay: BRD4(1)/acetylated peptide H4 binding assay (TR-FRET)
Settings: inhibition of interaction between His6-tagged BRD4(1) (amino acids 67-152) and acetylated histone H4 peptide
Description: Protein-Protein Interaction Assay: BRD4/Acetylated Peptide H4 Binding Assay 1. Assay Description for BRD4 Bromo Domain 1 [BRD4(1)] To assess the BRD4(1) binding strength of the substances described in this application, the ability thereof to inhibit the interaction between BRD4(1) and acetylated histone H4 in a dose-dependent manner was quantified. […]
pIC50: −log10 of the molar value.
Observation Type: pIC50

Compound: Cc1cc(C(=O)NCCN(C)C)ccc1Nc1ccc2c(n1)N(C1CCOCC1)[C@H](C)C(=O)N2C [Example 63]
pIC50: 6.58
--
Compound: C[C@@H]1C(=O)N(C)c2ccc(Nc3ccc(C(=O)N[C@H]4CC[C@H](N5CCN(CC6CC6)CC5)CC4)cc3)nc2N1C1CCCCC1 [Example 68]
pIC50: 6.58
--
Compound: COc1cc(C(=O)N2CC3(COC3)C2)ccc1Nc1ccc2c(n1)N(C1CCCCC1)[C@H](C)C(=O)N2C [Example 73]
pIC50: 6.56
--
Compound: COc1cc(C(=O)NC2CCN(C)CC2)ccc1Nc1ccc2c(n1)N(C(C)C)[C@H](C)C(=O)N2C [Example 2]
pIC50: 6.30
--
Compound: COc1cc(C(=O)N2CCN(C3CC3)CC2)ccc1Nc1ccc2c(n1)N(C1CCOCC1)[C@H](C)C(=O)N2C [Example 65]
pIC50: 6.63
--
Compound: COc1cc(C(=O)NC2CCC(O)CC2)ccc1Nc1ccc2c(n1)N(C(C)C)[C@H](C)C(=O)N2C (stereo partly shown) [Example 97]
pIC50: 6.58
--
Compound: Cc1cc(C(=O)N[C@H]2CC[C@H](N3CCN(CC4CC4)CC3)CC2)ccc1Nc1ccc2c(n1)N(C1CCOCC1)[C@H](C)C(=O)N2C [Example 37]
pIC50: 6.46

* * *

target: BRD4 bromo domain 2 [BRD4(2)] (Homo sapiens, UniProt O60885); construct: N-terminally His6-tagged BRD4(2) (amino acids 357-445); test: BRD4(2)/acetylated peptide H4 binding assay (TR-FRET); details: inhibition of interaction between His6-tagged BRD4(2) (amino acids 357-445) and acetylated histone H4 peptide
pIC50: −log10 of the molar value.
Observation Type: pIC50

Compound: C[C@@H]1C(=O)N(C)c2ccc(Nc3ccc(C(=O)NC4CCC(N5CCC(F)(F)CC5)CC4)cc3)nc2N1C1CCCCC1 (stereo partly shown) [Example 71]
Observation Type: pIC50
Value Observed: 6.35

Compound: C[C@@H]1C(=O)N(C)c2ccc(Nc3ccc(C(=O)NCCN4CCN(C)CC4)cc3)nc2N1C1CCCCCC1 [Example 89]
Observation Type: pIC50
Value Observed: 7.03

Compound: COc1cc(C(=O)N2CC3(CCS3(=O)=O)C2)ccc1Nc1ccc2c(n1)N(C(C)C)[C@H](C)C(=O)N2C [Example 8]
Observation Type: pIC50
Value Observed: 7.08

Compound: CC(C)N1c2nc(Nc3ccc(S(=O)(=O)N(C)C)cc3)ccc2N(C)C(=O)[C@H]1C [Example 100]
Observation Type: pIC50
Value Observed: 7.15

A: COc1cc(C(=O)NCCc2cccnc2)ccc1Nc1ccc2c(n1)N(C1CCOCC1)[C@H](C)C(=O)N2C [Example 61]
B: Cc1cc(C(=O)NC2CCN(C)CC2)ccc1Nc1ccc2c(n1)N(C1CCOCC1)[C@H](C)C(=O)N2C [Example 54]
C: C[C@@H]1C(=O)N(C)c2ccc(Nc3ccc(C(=O)NCCN4CCN(C)CC4)cc3)nc2N1C1CCOCC1 [Example 51]
Task: // ascending sort on recorded pIC50 Present the labels in the sequence the task asks for.
Result: B, C, A
(B: 6.45, C: 6.66, A: 6.96)

* * *

biological target: BRD4 bromo domain 2 [BRD4(2)] (Homo sapiens, UniProt O60885); construct: N-terminally His6-tagged BRD4(2) (amino acids 357-445); made in house; host or cells: E. coli; experiment: BRD4(2)/acetylated peptide H4 binding assay (TR-FRET); conditions: inhibition of interaction between His6-tagged BRD4(2) (amino acids 357-445) and acetylated histone H4 peptide
Observation Type: IC50 (nM)

Compound: Cc1cc(C(=O)N[C@H]2CC[C@H](N3CCN(CC4CC4)CC3)CC2)ccc1Nc1ccc2c(n1)N(C1CCOCC1)[C@H](C)C(=O)N2C
Study System: BRD4 bromo domain 2 [BRD4(2)] (Homo sapiens, UniProt O60885)
IC50 [nM]: 306
--
Compound: C[C@@H]1C(=O)N(C)c2ccc(Nc3ccc(S(=O)(=O)N[C@H]4CC[C@H](N5CCN(CC6CC6)CC5)CC4)cc3)nc2N1C1CCOCC1
Study System: BRD4 bromo domain 2 [BRD4(2)] (Homo sapiens, UniProt O60885)
IC50 [nM]: 51
--
Compound: COc1cc(C(=O)N2CCC(F)CC2)ccc1Nc1ccc2c(n1)N(Cc1ccccc1)[C@H](C)C(=O)N2C
Study System: BRD4 bromo domain 2 [BRD4(2)] (Homo sapiens, UniProt O60885)
IC50 [nM]: 102

a: CC(C)N1CCN(S(=O)(=O)c2ccc(Nc3ccc4c(n3)N(C3CCCC3)[C@H](C)C(=O)N4C)cc2)CC1
b: COc1cc(C(=O)N2CCN(C(C)C)CC2)ccc1Nc1ccc2c(n1)N(Cc1ccccc1)[C@H](C)C(=O)N2C
c: COCCN1c2nc(Nc3ccc(C(=O)NC4CCN(C)CC4)cc3)ccc2N(C)C(=O)C1C (centres unmarked)
d: CC(C)N1c2nc(Nc3ccc(C(=O)N[C@H]4CC[C@H](N5CCN(CC6CC6)CC5)CC4)cc3)ccc2N(C)C(=O)[C@H]1C
Task: Returns the items ordered by IC50, from maximum to minimum. A complete answer lists every label in the requested sequence.
Result: d, c, b, a
(d: 344 nM, c: 217 nM, b: 138 nM, a: 90 nM)

I: C[C@@H]1C(=O)N(C)c2ccc(Nc3ccc(C(=O)N4CC5(COC5)C4)cc3)nc2N1C1CCCCC1
II: C[C@@H]1C(=O)N(C)c2ccc(Nc3ccc(C(=O)NCCN(C)C)cc3)nc2N1C1CCOCC1
Task: Lower value of IC50 belongs to which: I or II ? Indicate which entry you chose by stating its label.
Result: I

P: CC(C)N1c2nc(Nc3ccc(C(=O)NC4CCN(C)CC4)cc3)ccc2N(C)C(=O)[C@H]1C
Q: C[C@@H]1C(=O)N(C)c2ccc(Nc3ccc(C(=O)N4CC5(CCS5(=O)=O)C4)cc3)nc2N1C1CCCCC1
R: COc1cc(C(=O)NC2CCC(O)CC2)ccc1Nc1ccc2c(n1)N(Cc1ccccc1)[C@H](C)C(=O)N2C (some centres unmarked)
Task: Form: Sort by [IC50] Order [ ascending ] Rank the items, then write their labels in that order.
Result: R, P, Q
